Assay: yeast display, Sf9 membrane polyspecificity reagent, FACS + sequencing; frameworks hold sequencing errors
QUANTITY_MEASURED: polyreactivity (PSR sort gate)

Worked set:
QVQLVESGGGLVQAGGSLRLTCAASGSTFHSNAMGWYREAPGKERELVAAISQGGGRTYYADSVKGRFTISRDNAKNTVYLQMNSLKPEDTAVYYCNRRTRGLIDGGMDYWGQGTQVTLSS = low polyreactivity
QVQLVESGGGLVQAGGSLRLSCAASGITLTRYAMGWYRQAPGKERELVAAISTGGGSTYYADSVKGRFTISRDNAKNTVYLQMNSLKPEDTAVYYCAARIRFARGYPITRTYDYWGQGTQVTVSS = high polyreactivity
QVQLVESGGGLVHAGGSLRLSCAASGSIFVVYTMGWYIQAPGKERELVADISASGGRTYYADSVKGRFTISSDNAKNTVYLKMNRLKPEDTAVYYCARVWYSSYSSESYSDHDYWGQGTQGTVSS = high polyreactivity
QVQLVESGGGLVQAGGSIRLTCAASGLIFLVYPMGWYRPAPGKERELVASIRTGRSTSYADSVKGRFTISRDNAKYTVYLQMNSLKPEDTAVYYCAADRGRPNLPGDYWGQGTQVTVSS = low polyreactivity
QVQLVESGGGLDQAGGSLRLSFAASGFTFGYYAMGWYRQEPGKARELVAAITYDGDTTYYADSVKGRITISRDNAKNTVYLQMNSLKPEDTAVYYCNRDVLTFNYDYWGQGTQVTVSS = low polyreactivity

Report polyreactivity (PSR sort gate) for every entry below.
1. QVQLVESGGGLVQAGGSLRLSCAASGSTFYRNAMGWYRQAPGKERELVAAISRGGSTYYADSVKGRFTISRDNAKNTVYLQMNSLKPEDTAVYYCNTDVNYAGYGWYYYWGQGTQVTVSS
2. QVQLVESGGGLVQAGGSLRLSCAASGLIFSYKTMGWYRQAPGKERELVAAITSGGRTYYADSVKGRFTISRDNAKNTVYLQMNSLKPEDTAVYYCAVLSKWRYDYWGQGTQVTVSS
3. QVQLVESGGGLVQAGGSLRLSCAASGLIFGRNAMGWYRQAPGKERELVAAITSGGSTYYADSVKGRFTISRDNAKNTVYLQMNSLKPEDTAVYYCFVDYYPYDYWGQGTQVTVSS

1. high polyreactivity
2. high polyreactivity
3. low polyreactivity

Provide polyreactivity (PSR sort gate) value for the following sequence: `QVQLVESGAGLVQAAGSLRLSCDASGYIFEWNAMGWYRQAPGKERELVASIDSDGSTYYADSVKGRFTISRDNAKNTVYLQMNSLKPEDTAVYYSAKSIDGWYWRRRRYDYWGQGTQVTVSS`
low polyreactivity
